Can you tell me pEC50 for the items I'm about to list?
- Tested target: T1, human ROR1 on the surface of tumor cells (human, UniProt Q01973 30-937)
- T1 construct: whole, on cells; also called ROR1 on the cell surface; tumor cell ROR1
- T1 sequence (Q01973 30-937): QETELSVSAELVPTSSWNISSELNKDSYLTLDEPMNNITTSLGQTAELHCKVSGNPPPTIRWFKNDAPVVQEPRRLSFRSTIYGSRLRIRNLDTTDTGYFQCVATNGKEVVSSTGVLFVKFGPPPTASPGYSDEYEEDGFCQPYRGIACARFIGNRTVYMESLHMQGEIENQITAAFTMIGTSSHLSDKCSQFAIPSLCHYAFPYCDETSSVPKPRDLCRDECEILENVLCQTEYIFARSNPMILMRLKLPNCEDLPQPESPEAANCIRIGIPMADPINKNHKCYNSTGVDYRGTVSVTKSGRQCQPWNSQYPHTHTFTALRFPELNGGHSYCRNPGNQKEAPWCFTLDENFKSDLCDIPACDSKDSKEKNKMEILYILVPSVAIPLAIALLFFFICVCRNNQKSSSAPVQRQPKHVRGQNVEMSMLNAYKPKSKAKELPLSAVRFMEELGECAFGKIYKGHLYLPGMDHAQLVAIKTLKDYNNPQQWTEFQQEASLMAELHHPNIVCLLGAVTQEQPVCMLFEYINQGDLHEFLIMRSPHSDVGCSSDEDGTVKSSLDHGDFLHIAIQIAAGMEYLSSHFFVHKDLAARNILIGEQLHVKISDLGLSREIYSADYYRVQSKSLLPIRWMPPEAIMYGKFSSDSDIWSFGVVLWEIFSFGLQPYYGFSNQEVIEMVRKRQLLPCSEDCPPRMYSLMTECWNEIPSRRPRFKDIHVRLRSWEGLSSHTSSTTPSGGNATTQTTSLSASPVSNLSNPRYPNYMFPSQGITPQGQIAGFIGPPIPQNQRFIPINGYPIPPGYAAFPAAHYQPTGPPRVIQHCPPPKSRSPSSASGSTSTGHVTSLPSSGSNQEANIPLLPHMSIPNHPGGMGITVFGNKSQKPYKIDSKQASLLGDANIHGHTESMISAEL
- Assay text: FACS, NCI-H226 cells
Give bare numbers, as −log10 of the molar value.

Binder: mAb007c (antibody, V domains shown, Human-mouse chimeric) VH: EVQLQQSGPELVKPGASVKMSCKASGYTFTDYNMHWVKQSHGKSLEWIGYINPNNGGTSYNQKFKGKATLTVNKSSSTAYMELRSLTSDDSAVYYCARRGYGSGYAMDYWGQGTSVTVSS VL: DVLMTQTPLSLPVSLGDQASISCRSSQSIVHTNGNTYLEWYLQNPGQSPKLLIYKVFNRFSGVPDRFSGSGSGTDFTLKISRVEAEDLGVYYCFQGSLFPYTFGGGTKLEIK
pEC50: 9.55

# batch size: 2; output pEC50 per entry
1. mAb006c (antibody, V domains shown, Human-mouse chimeric) VH: EVQLQQSGPELVKPGASLKMSCKASGYTFPDYNIHWVKQSHGKSLEWIGYINPNNGGTTYNQKFKGKATLTVSKSSSTAYMELRSLTSEDSAVYSCARRGYGSSYAMDYWAQGTSVTVSS VL: DVLMTQSPLSLPVSLGDQASISCRSSHIIVHTNGNTYLEWYLQKPGQSPKLLIYKVSNRFSGVPDRFSGSGSGTDFTLKISRVEAEDLGVYYCFQGSRVPYTFGGGTKLEIK
2. mAb009c (antibody, V domains shown, Human-mouse chimeric) VH: EVQLQQSGPELVKPGASLKLSCKASGYTFPDYNIHWVKQSHGKSLEWIGYINPNNGNTNYNQKFEGKATLTVSKSSSTAYMELRSLTSDDSAVYSCARRGYGSSYAMDFWGQGTSVTVSS VL: DVLMTQTPLSLPVSLGNQASISCRSSHIIVHTNGNTYLEWYLQKPGQSPKLLIYKVSNRFSGVPDRFSGSGSGTDFTLKISRVEAEDLGVYYCFQGSRVPYTFGGGTKLEIK

[9.55, 9.60]

Determine from records and report pEC50 for mAb008c (antibody, V domains shown, Human-mouse chimeric) VH: EVQLQQSGPELVKPGASVKMSCKASEYTFTDYNMHWVKQSHGKSLEWIGYINPNNGGTTYNQKFKGKATLTVNKSSSTAYMELRSLTSDDSAVYYCARRGYGSGYAMDYWGQGASVTVSS VL: DVLLTQTPLSLPVSLGDRASISCTSSQSIVHTNGNTYLEWYLQNPGQSPKLLIYKVSNRFSGVPDRFSGSGSGTDFTLKISRVEAEDLGVYYCFQGSLFPYTFGGGTKLEIK 9.44
